target: soluble HLA-DR1 (HLA-DR alpha truncated after Asn192 with a C-terminal nine amino acid HA epitope tail; HLA-DR1 beta truncated after Lys198), made in Baculovirus-infected insect cells (human); test: exchange ELISA: tethered HLA-DR1 preloaded with unlabeled hMBP(90-102) 50 uM, washed; AE peptide plus biotin-hMBP(90-102) 50 uM, 1 h 37 C; biotin bound as fraction of positive control (overnight loading)
readout.label: Relative Binding (of biotin-hMBP(90-102) to HLA-DR1) (fraction of positive control o.d.)
Please respond with just the number, no unit label.

Known Relative Binding (of biotin-hMBP(90-102) to HLA-DR1) (fraction of positive control o.d.) results, listed for orientation:
Ac-LRMKLPKPP-NH2 [AE401] : 0.45
Ac-LRMKLPKPPKPV-NH2 [AE402] : -0.03
LRMKLPK (head-to-tail cyclization: the amino terminal amino group is coupled through an amide linkage to the carboxyl terminal group) [AE381] : -0.12
YRMKLPKSAKPV [AE107] : 1.04
Ac-LPKSAKPV-NH2 [AE405] : 0.57

**Query** Which measured Relative Binding (of biotin-hMBP(90-102) to HLA-DR1) (fraction of positive control o.d.) value corresponds to Ac-MKLPKPPKPV-NH2 [AE403] ?
**Result** 0.4

**Query** How about this binder: YRMKLPKSAKPVSQMR [AE101]
**Result** 0.31

**Query** How about this binder: Ac-LRMKYPK-NH2 [AE235]
**Result** 0.15

**Query** How about this binder: Ac-LRLKLPK-NH2 [AE206]
**Result** -0.13

**Query** How about this binder: YRMKLPKPPKPVSKMR [AE100]
**Result** 0.31
